Data origin, for the record: the supplement of paper PMC10567573

B1: SPSB1 (parent)
chain: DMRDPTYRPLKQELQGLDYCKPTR

Variants of: B1
Protocol Details: protein stability index of a GFP-peptide fusion (GPS, HEK-293T) (PSI 1-6); higher = more stable;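 also: lentivirally expressed fusions sorted by FACS into six bins by GFP to DsRed ratio, PSI derived from sequencing read proportions per bin multiplied by bin number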
Condition Parameters: c terminus: a fixed tail appended
Quick reference: protein stability index of the listed items.

Sequence Chain	protein stability index
DMRDPTYRPPKQELQGLDYCKPTR [L10P]	3.37
DMRDPTYRPLKQELQALDYCKPTR [G16A]	3.73
DMRDPTYRPEKQELQGLDYCKPTR [L10E]	4.03
DMRDPTYKPLKQELQGLDYCKPTR [R8K]	3.1
DMRDPAYRPLKQELQGLDYCKPTR [T6A]	3.33
DMRDPTYRPLKQELQGLFYCKPTR [D18F]	2.67
MMRDPTYRPLKQELQGLDYCKPTR [D1M]	3.39
DMRAPTYRPLKQELQGLDYCKPTR [D4A]	3.54
DMRDPTYRPLKQELQGLDYCFPTR [K21F]	1.6
DMRDPTYRPLKQEPQGLDYCKPTR [L14P]	3.89
DMRDPTYRPLKQELCGLDYCKPTR [Q15C]	2.57
DMRDPTYRPLKQELQGLKYCKPTR [D18K]	3.53
DMRDPTYRPLKQELQGLDYTKPTR [C20T]	3.71
DMRDPTYPPLKQELQGLDYCKPTR [R8P]	3.17
DMRDPTYRPLKQELRGLDYCKPTR [Q15R]	3.54
DMRDPTYRPLKQELQGLDYVKPTR [C20V]	1.78
DMRDPTYRPLKQELQGLDWCKPTR [Y19W]	3.04
DMRDPTYTPLKQELQGLDYCKPTR [R8T]	3.08
DMRDDTYRPLKQELQGLDYCKPTR [P5D]	3.1
DMRDPTKRPLKQELQGLDYCKPTR [Y7K]	3.31
DMRDPTYDPLKQELQGLDYCKPTR [R8D]	3.95
DMRDPTYRPLKGELQGLDYCKPTR [Q12G]	2.48
DMRDTTYRPLKQELQGLDYCKPTR [P5T]	3.17
DMRDPTYRPLKQFLQGLDYCKPTR [E13F]	2.58
DMADPTYRPLKQELQGLDYCKPTR [R3A]	3.16
DMRDPTYRPLKQELQGLDFCKPTR [Y19F]	3.18
DMNDPTYRPLKQELQGLDYCKPTR [R3N]	3.19
DMRDPTYRPLKQELQCLDYCKPTR [G16C]	3.17
DMRDPTYRPLKQETQGLDYCKPTR [L14T]	4.28
DMRDPTARPLKQELQGLDYCKPTR [Y7A]	2.08
DMRMPTYRPLKQELQGLDYCKPTR [D4M]	2.73
DMRDITYRPLKQELQGLDYCKPTR [P5I]	2.63
DMRDPTYRPLKQELQGLDYAKPTR [C20A]	3.34
DMQDPTYRPLKQELQGLDYCKPTR [R3Q]	3.45
DMRDPTYRPLKQEFQGLDYCKPTR [L14F]	3.43
DMRDPTYRPLKQELQGLDYCKYTR [P22Y]	3.13
DDRDPTYRPLKQELQGLDYCKPTR [M2D]	3.86
DMRDPTYRPLKQELQTLDYCKPTR [G16T]	3.36
DMRDPTSRPLKQELQGLDYCKPTR [Y7S]	2.93
DMRDPEYRPLKQELQGLDYCKPTR [T6E]	3.51
QMRDPTYRPLKQELQGLDYCKPTR [D1Q]	2.83
NMRDPTYRPLKQELQGLDYCKPTR [D1N]	3.12
DMRDPTYRPLKQELQGLDYCKPSR [T23S]	2.92
DMRDPTYRPLKQERQGLDYCKPTR [L14R]	3.42
DMRDPTYRPLKQELQGLDACKPTR [Y19A]	4.53
DMRDFTYRPLKQELQGLDYCKPTR [P5F]	3
